- System: MIA PaCa-2 (pancreas, carcinoma) cells
- test.description: Cell viability assay, CellTiter-Glo (Example 21)
- Format: cell-based, human
- details: 11.1 nM, 72 h treatment
parameter: MIA PaCa-2 (pancreas, carcinoma) cell viability (% of control)

Some compounds with recorded MIA PaCa-2 (pancreas, carcinoma) cell viability (% of control):
compound | system | result
O=C1C2=C(CCN(Cc3ccccc3)C2)N2CCN=C2N1Cc1ccc(C(F)(F)F)cc1 [I/1, reference compound] | MIA PaCa-2 (pancreas, carcinoma) cells | 108.5 ± 11.2 % of control
O=C1C2=C(CCN(Cc3cc(F)cc(F)c3)C2)N2CCN=C2N1Cc1ccc(C(F)(F)F)cc1 [I/30] | MIA PaCa-2 (pancreas, carcinoma) cells | 19.1 ± 8.0 % of control
O=C1C2=C(CCN(Cc3cccc(F)c3)C2)N2CCN=C2N1Cc1ccc(F)cc1 [I/6, reference compound] | MIA PaCa-2 (pancreas, carcinoma) cells | 110.7 ± 6.4 % of control
O=C1C2=C(CCN(Cc3cc(F)cc(F)c3)C2)N2CCN=C2N1Cc1ccc(F)cc1 [I/7] | MIA PaCa-2 (pancreas, carcinoma) cells | 23.1 ± 6.3 % of control
O=C1C2=C(CCN(Cc3cccc(F)c3)C2)N2CCN=C2N1Cc1ccc(C(F)(F)F)cc1 [I/3, reference compound] | MIA PaCa-2 (pancreas, carcinoma) cells | 105.2 ± 3.4 % of control
[N-]=[N+]=Nc1ccc(CN2C(=O)C3=C(CCN(Cc4cc(F)cc(F)c4)C3)N3CCN=C23)cc1 [I/107] | MIA PaCa-2 (pancreas, carcinoma) cells | 91.5 ± 6.6 % of control
O=C1C2=C(CCN(Cc3cc(F)cc(F)c3)C2)N2CCN=C2N1Cc1ccc(Cl)cc1 [I/124] | MIA PaCa-2 (pancreas, carcinoma) cells | 18.9 ± 7.1 % of control
[N-]=[N+]=Nc1cccc(CN2CCC3=C(C2)C(=O)N(Cc2ccc(C(F)(F)F)cc2)C2=NCCN23)c1 [I/111] | MIA PaCa-2 (pancreas, carcinoma) cells | 90.6 ± 19.3 % of control

Okay, next one:
Sample [N-]=[N+]=Nc1cccc(CN2CCC3=C(C2)C(=O)N(Cc2ccc(Cl)cc2)C2=NCCN23)c1 [I/133] ; MIA PaCa-2 (pancreas, carcinoma) cell viability (% of control) observed: 92.1 ± 13.2 % of control

* * *

- Test system: BxPC3 pancreatic cancer cell line
- test.description: CellTiter-Glo IC50 (Example 19)
- Format: cell-based
- details: Homo sapiens, BXPC-3, 72 h
A collection of molecules and their measured pIC50
Scale for pIC50: -log10 of concentration given in mol/L; no unit attached.

Some solved entries appear below for comparison.
molecule | pIC50
[N-]=[N+]=Nc1cccc(CN2CCC3=C(C2)C(=O)N(Cc2ccc(C(F)(F)F)cc2)C2=NCCN23)c1 | 7.89
O=C1C2=C(CCN(Cc3cc(F)cc(F)c3)C2)N2CCN=C2N1Cc1ccc(Br)cc1 | 8.52
O=C1C2=C(CCN(Cc3cc(F)cc(F)c3)C2)N2CCN=C2N1Cc1ccc(C(F)(F)F)cc1 | 8.40
[N-]=[N+]=Nc1ccc(CN2C(=O)C3=C(CCN(Cc4cc(F)cc(F)c4)C3)N3CCN=C23)cc1 | 7.85
O=C1C2=C(CCN(Cc3ccccc3)C2)N2CCN=C2N1Cc1ccc(C(F)(F)F)cc1 [I/1, reference compound] | 6.96

According to the records, this molecule "O=C1C2=C(CCN(Cc3cc(F)cc(F)c3)C2)N2CCN=C2N1Cc1ccc(F)cc1" displays pIC50 of 7.92
